- TESTED_ON: T1, HCV bt-134-154 (Peptide 1, HCVc 134-154) (Hepatitis C virus (numbering per HCV-1), biotin (carboxy-terminal per; N-terminal per))
- T1 peptide: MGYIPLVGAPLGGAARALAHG
- EXPERIMENT: EIA, captured mAb + biotin peptide
The class of a record is decided solely by its measured Reactivity (OD 492 nm); consult range A = under 0.1 OD units, range B = from 0.1 OD units up to 1 OD units, range C = 1 OD units and over

HCV 208A-207 (antibody, V domains shown) VH: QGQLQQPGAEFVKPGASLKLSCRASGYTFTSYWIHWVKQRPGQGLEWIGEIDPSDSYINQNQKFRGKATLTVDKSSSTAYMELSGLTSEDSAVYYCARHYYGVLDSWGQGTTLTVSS VL: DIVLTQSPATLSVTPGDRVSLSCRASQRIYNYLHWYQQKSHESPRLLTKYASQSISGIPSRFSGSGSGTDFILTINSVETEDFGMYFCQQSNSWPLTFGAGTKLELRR
range C
HCV 208A-422 (antibody, V domains shown) VH: DVQLQESGPGLVNPSQSLSLTCSVTGYSITSGYYWIWIQQSPGNKLEWMGYIKYDGGNNYSPSLKNRISIARDTSKNQCFLKLNSVTIEDTATYYCTRGSDSFDYWGQGTTLTVSS VL: DIVLTQSPASLAVSLGQRAIISCKASQSVSFAGTNLMHWYQQKPGQQPKLLIYRASNLETGVPTRFSGSGSRTDFTLNIHPVEEDDAATYYCQQSREYYTFGGGTKLEIKR
range A
HCV 208A-352 (antibody, V domains shown) VH: QGQMQQSGAELVKPGASVKLSCKTSGFTFSSSFISWLKQKPGQSLEWIAWIYAGTGNTNYNQKFTDKAQLTVDTSSSTAYMQFSSLTTEDSAIYYCAISGTGFTYWGQGTLVTVSA VL: DVLMAQTPLSLPVTLGDQASISCRSSQSLVHSNGNTYLEWFLQKPGQSPKLLIYNVSNRFSGVPDRFSGSGSGTDFTLKISRVEAEDLGVYYCFQGSHVPLTFGSGTKLEIKR
range C
HCV 208A-692 (antibody, V domains shown) VH: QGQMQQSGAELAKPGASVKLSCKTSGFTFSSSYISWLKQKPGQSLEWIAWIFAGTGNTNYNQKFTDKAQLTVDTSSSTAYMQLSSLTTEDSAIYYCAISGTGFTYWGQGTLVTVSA VL: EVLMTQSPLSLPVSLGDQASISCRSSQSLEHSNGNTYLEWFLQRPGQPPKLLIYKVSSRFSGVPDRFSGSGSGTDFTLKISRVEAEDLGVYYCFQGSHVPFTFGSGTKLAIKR
range C
HCV 208B-174 (antibody, V domains shown) VH: EVKLEESGGGLVQPGGSMKLSCVASGFSFSSYWMSWVRQSPEKGLDWVAEIRLRSDNYATHYAESVKGRFTISRDDSISRLYLQMNTLRAEDTGIYYCTWMTYWGQGTLVTVSA VL: QNVLTQSPAIMSASPGEKVTMSCSASSSVTYMFWYQLKPESSPRLLIYDTSNLASGVPVRFSGSGSGTSYSLTISRMEAEDAATYYCQEWSSYPLTFGAGTKLDLKR
range A

Asked: Exam item: assign HCV 208A-159 (antibody, V domains shown) VH: QLQQSGPAQVKPGASVMISCKTSGYTFTENAMHWVKQSHGKSLEWIGGVNPNNGDTIFNQKFKDKAALTVDKSSSTAFMELRSLTSEESTVYYCVRRELDFFDYWGQGTSVTVSS VL: DIVLTQSPASLAVSLGQRATISCRASQSVSTSRYSYVHWYQQKPGQPPKLLIKYAANLESGVPARFSGSGSGTDFTLNIHPVAEEDAAAYYCQHSWEFPFTFGSGTKLEIKR to the correct category.
Given back: range B

Asked: Exam item: assign HCV 208B-793 (antibody, V domains shown) VH: EVKLVESGGGLVQPGGSLKLSCAASGFTFSSYAMSWVRQTPERRLEWVTYISNGGGSTYYSDTVKGRFTFSRDNAKNTLYLQMSSLKSEDTAMYYCARHGLGRTGFASWGQGTLVTVSA VL: DIVMTQSHKFMSTSVGDRVSITCKASQDVGTAVAWYQQKPGQSPKLLIYWASTRHTGVPDRFTGSGSGTDFTLTISNVQSEDLADYFCQQYSNYLTFGAGTKLEVKR to the correct category.
Given back: range A

Asked: Exam item: assign HCV 208B-251 (antibody, V domains shown) VH: QLQQSGPVLVKPGASVKISCKTSGYTFTENAMHWVKQSHGKSLEWIGGVNPNNGDTIYNQKFKGKATLTVDKSSSTAFMELRSLTSEESPVYFCVRRELDFFDYWGQGTSVTVSS VL: DIVLTQSPASLAVSLGKKATISCRASQSVSTSRYSYMHWYQQKPGHPPKLLIKYASNLESGVPARFSGSGSGTDFTLNIHPVAEEDTAAYYCQHSWEFPFTFGSGTKLEIKR to the correct category.
Given back: range B

Asked: Exam item: assign HCV 208A-741 (antibody, V domains shown) VH: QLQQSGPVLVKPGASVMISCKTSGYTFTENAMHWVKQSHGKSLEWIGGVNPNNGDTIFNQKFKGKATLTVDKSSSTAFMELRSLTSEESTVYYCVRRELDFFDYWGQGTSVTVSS VL: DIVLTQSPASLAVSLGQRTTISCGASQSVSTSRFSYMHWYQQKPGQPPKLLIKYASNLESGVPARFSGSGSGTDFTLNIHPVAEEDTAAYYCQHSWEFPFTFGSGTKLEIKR to the correct category.
Given back: range C

Asked: Exam item: assign HCV 208A-126 (antibody, V domains shown) VH: QLQQSGPVLVKPGASVMISCKTSGYTFTENAMHWVKQSHGKSLEWIGGVNPNNGDTIFNQKFKGKATLTVDKSSNTAFTELRSLPSEESTVYYCVRRGLDFFDYWGQGTSVTVSS VL: DIVLTQSPASLAVSLGQRATISCRASQSVSTSRYSYMHWYQQKPGQPPKLLIKYASNLESGVPARFSGSGSGTDFTLNIHPVAEEDTAAYYCQHSWEFPFTFGSGTKLEIKR to the correct category.
Given back: range B
